# assay-system: recombinant human mPGES-1 (Homo sapiens (Human))
# protocol-description: mPGES-1 enzyme assay (HTRF detection of PGE2)
# Format: biochemical
# particulars: recombinant human mPGES-1 microsomes, PGH2 2 μM, 60 seconds; read-out: mPGES-1 inhibitory effect IC50 in the enzyme assay
# Protocol: Microsomes from Rosetta E. coli bacteria expressing recombinant human mPGES-1 can be derived as described below: Inoculate 5 ml LB with Ampicilin (50 μg/ml) and Chloramphenicol (34 μg/ml) with bacteria from freeze culture. […] The fluorescence of Europium cryptate (maxex=307 nm, maxem=620 nm) and d2-PGE2 (maxex=620 nm, maxem=665 nm) are measured. The extent of the specific HTRF is measured as a ratio of the emission intensity at 665 nm vs. that at 620 nm at an excitation puts of 320 nm. […]

[
  {
    "molecular-string": "Cn1c(Nc2c(Cl)ccc(CNC(=O)[C@](C)(O)C(F)(F)F)c2Cl)nc2cc(C(=O)Nc3cccc(C(F)(F)F)n3)c(N3CCC(C(F)(F)F)CC3)cc21",
    "u": "nM",
    "IC50": 4.2
  },
  {
    "molecular-string": "Cn1c(Nc2c(Cl)ccc(CNC(=O)C(C)(C)F)c2Cl)nc2cc(C(=O)N[C@H]3CC[C@H](C(F)(F)F)CC3)c(N3CC[C@@H](F)C3)cc21",
    "u": "nM",
    "IC50": 3
  },
  {
    "molecular-string": "Cn1c(Nc2c(Cl)ccc(CNC(=O)c3c(N)cccc3Cl)c2Cl)nc2cc(C(=O)NCCC(F)(F)F)c(N3CCC(C(F)(F)F)CC3)cc21",
    "u": "nM",
    "IC50": 4
  }
]

----------
# assay-system: mPGES-1 in A549 cells (Homo sapiens (Human), UniProt O14684)
# Sequence (O14684 whole entry): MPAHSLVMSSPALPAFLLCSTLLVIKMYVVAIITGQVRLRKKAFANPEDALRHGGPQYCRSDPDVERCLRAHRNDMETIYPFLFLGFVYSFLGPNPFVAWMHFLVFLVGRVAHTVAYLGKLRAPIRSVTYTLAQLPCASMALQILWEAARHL
# protocol-description: A549 cell-based assay (PGE2 formation, 50% human serum)
# particulars: IL-1β 5 ng/ml, 10 nM arachidonic acid, 20-24 h, read-out: mPGES-1 inhibitory effect IC50 in the cell assay
pIC50: −log10 of the molar value.

[
  {
    "molecular-string": "Cn1c(Nc2c(Cl)ccc(CNC(=O)C(C)(C)C)c2Cl)nc2cc(C(=O)NC3CCN(CC(F)(F)F)CC3)c(N3CCC(C(F)(F)F)CC3)cc21",
    "assay-system": "mPGES-1 in A549 cells (Homo sapiens (Human), UniProt O14684)",
    "comparison-sign": ">",
    "pIC50": 9.00
  },
  {
    "molecular-string": "CN(CC#N)c1cc2c(cc1C(=O)N[C@H]1CC[C@H](C(F)(F)F)CC1)nc(Nc1c(Cl)ccc(CNC(=O)C(C)(C)C)c1Cl)n2C",
    "assay-system": "mPGES-1 in A549 cells (Homo sapiens (Human), UniProt O14684)",
    "comparison-sign": "=",
    "pIC50": 9.00
  },
  {
    "molecular-string": "Cn1c(Nc2c(Cl)ccc(CNC(=O)C(C)(C)C)c2Cl)nc2cc(C(=O)NCC(F)(F)F)c(Nc3ccc(F)c(Cl)c3)cc21",
    "assay-system": "mPGES-1 in A549 cells (Homo sapiens (Human), UniProt O14684)",
    "comparison-sign": "=",
    "pIC50": 6.84
  }
]

----------
// reported pIC50 per item
# assay-system: mPGES-1 in A549 cells (Homo sapiens (Human), UniProt O14684)
# protocol-description: A549 cell-based assay (PGE2 formation, 50% human serum)
# particulars: IL-1β 5 ng/ml, 10 nM arachidonic acid, 20-24 h, read-out: mPGES-1 inhibitory effect IC50 in the cell assay
pIC50: −log10 of the molar value.

[
  {
    "compound": "Cc1n[nH]c(CN(C)c2cc3c(cc2C(=O)NCC(F)(F)C(F)(F)F)nc(Nc2c(Cl)ccc(CNC(=O)C(C)(C)F)c2Cl)n3C)n1",
    "comparison-sign": "=",
    "pIC50": 7.77
  },
  {
    "compound": "Cn1c(Nc2c(Cl)ccc(CNC(=O)c3cccc[n+]3[O-])c2Cl)nc2cc(C(=O)NCCC(F)(F)F)c(N3CCC(C(F)(F)F)CC3)cc21",
    "comparison-sign": "<",
    "pIC50": 7.00
  },
  {
    "compound": "Cn1c(Nc2c(Cl)ccc(CNC(=O)c3cccc(C#N)n3)c2Cl)nc2cc(C(=O)N[C@H]3CC[C@H](C(F)(F)F)CC3)c(N3CC4CC4C3)cc21 (stereo partly drawn)",
    "comparison-sign": "=",
    "pIC50": 7.68
  },
  {
    "compound": "Cn1ccnc1CNc1cc2c(cc1C(=O)N[C@H]1CC[C@H](C(F)(F)F)CC1)nc(Nc1c(Cl)ccc(CNC(=O)C(C)(C)C)c1Cl)n2C",
    "comparison-sign": "=",
    "pIC50": 7.21
  },
  {
    "compound": "CN(Cc1ccc(F)cc1)c1cc2c(cc1C(=O)N[C@H]1CC[C@H](C(F)(F)F)CC1)nc(Nc1c(Cl)ccc(CNC(=O)C(C)(C)C)c1Cl)n2C",
    "comparison-sign": "=",
    "pIC50": 8.80
  },
  {
    "compound": "Cn1c(Nc2c(Cl)ccc(CNC(=O)c3cc[nH]n3)c2Cl)nc2cc(C(=O)NCCC(F)(F)F)c(N3CCC(C(F)(F)F)CC3)cc21",
    "comparison-sign": "<",
    "pIC50": 7.00
  },
  {
    "compound": "Cn1c(Nc2c(Cl)ccc(CNC(=O)c3ccc(N)cc3Cl)c2Cl)nc2cc(C(=O)NCCC(F)(F)F)c(N3CCC(C(F)(F)F)CC3)cc21",
    "comparison-sign": "=",
    "pIC50": 8.52
  },
  {
    "compound": "Cn1c(Nc2c(Cl)ccc(CNC(=O)C(C)(C)C)c2F)nc2cc(C(=O)Nc3ccc(OC(F)(F)F)cc3)c(N3CC[C@@H](F)C3)cc21",
    "comparison-sign": "=",
    "pIC50": 8.52
  },
  {
    "compound": "CN(C)c1ccnc(C(=O)NCc2ccc(Cl)c(Nc3nc4cc(C(=O)N[C@H]5CC[C@H](C(F)(F)F)CC5)c(N5CC6CC6C5)cc4n3C)c2Cl)c1 (stereo partly drawn)",
    "comparison-sign": "=",
    "pIC50": 7.29
  },
  {
    "compound": "Cn1c(Nc2c(Cl)ccc(CNC(=O)C(C)(C)C)c2Cl)nc2cc(C(=O)N[C@H]3CC[C@H](C(F)(F)F)CC3)c(N3CCS(=O)(=O)CC3)cc21",
    "comparison-sign": "=",
    "pIC50": 8.15
  },
  {
    "compound": "Cn1c(Nc2c(Cl)ccc(CNC(=O)[C@](C)(O)C(F)(F)F)c2Cl)nc2cc(C(=O)NC3CC(F)(F)C3)c(N3CCC(C(F)(F)F)CC3)cc21",
    "comparison-sign": "=",
    "pIC50": 8.70
  },
  {
    "compound": "CC(C)(C)C(=O)NCc1ccc(Cl)c(Nc2nc3cc(C(=O)NCC(F)(F)F)c(N4CCC(F)CC4)cc3[nH]2)c1Cl",
    "comparison-sign": "=",
    "pIC50": 8.52
  }
]

----------
# assay-system: recombinant human mPGES-1 (Homo sapiens (Human), UniProt O14684)
# Sequence (O14684 whole entry): as above
# protocol-description: mPGES-1 enzyme assay (HTRF detection of PGE2)
# Assay type: biochemical
# particulars: recombinant human mPGES-1 microsomes, PGH2 2 μM, 60 seconds; read-out: mPGES-1 inhibitory effect IC50 in the enzyme assay
pIC50: −log10 of the molar value.
readout-label: pIC50

[
  {
    "molecular-string": "Cn1c(Nc2c(Cl)ccc(CNC(=O)[C@](C)(O)C(F)(F)F)c2Cl)nc2cc(C(=O)N[C@H]3CC[C@H](C(F)(F)F)CC3)c(N3CCC(C(F)(F)F)CC3)cc21",
    "readout-label": "pIC50",
    "assay-result": 8.54
  },
  {
    "molecular-string": "CN(CC#N)c1cc2c(cc1C(=O)N[C@H]1CC[C@H](C(F)(F)F)CC1)nc(Nc1c(Cl)ccc(CNC(=O)C(C)(C)C)c1Cl)n2C",
    "readout-label": "pIC50",
    "assay-result": 8.52
  },
  {
    "molecular-string": "Cn1c(Nc2c(Cl)ccc(CNC(=O)C(C)(C)C)c2Cl)nc2cc(C(=O)N[C@H]3CC[C@H](C(F)(F)F)CC3)c(N3CCC(F)(F)CC3)cc21",
    "readout-label": "pIC50",
    "assay-result": 8.70
  },
  {
    "molecular-string": "CC(C)(C)C(=O)NCc1ccc(Cl)c(Nc2nc3cc(C(=O)NCC(F)(F)C(F)(F)F)c(N4CCC(F)(F)CC4)cc3n2CC(F)F)c1Cl",
    "readout-label": "pIC50",
    "assay-result": 8.52
  },
  {
    "molecular-string": "Cn1c(Nc2c(Cl)ccc(CNC(=O)C(C)(C)C(F)(F)F)c2Cl)nc2cc(C(=O)N[C@H]3CC[C@H](C(F)(F)F)CC3)c(N3CC[C@@H](F)C3)cc21",
    "readout-label": "pIC50",
    "assay-result": 8.70
  },
  {
    "molecular-string": "Cn1c(Nc2c(Cl)ccc(CNC(=O)C(C)(C)C)c2Cl)nc2cc(C(=O)Nc3ccc(F)c(Cl)c3)c(N3CCC(F)(F)C3)cc21",
    "readout-label": "pIC50",
    "assay-result": 8.70
  },
  {
    "molecular-string": "Cn1c(Nc2c(Cl)ccc(CNC(=O)C(C)(C)C(F)(F)F)c2Cl)nc2cc(C(=O)Nc3ccc(F)c(Cl)c3)c(N3CC[C@@H](F)C3)cc21",
    "readout-label": "pIC50",
    "assay-result": 8.48
  },
  {
    "molecular-string": "Cn1c(Nc2c(Cl)ccc(CNC(=O)C(C)(C)C(F)(F)F)c2Cl)nc2cc(C(=O)N[C@H]3CC[C@H](C(F)(F)F)CC3)c(N3CCC(C(F)(F)F)CC3)cc21",
    "readout-label": "pIC50",
    "assay-result": 8.77
  },
  {
    "molecular-string": "Cn1c(Nc2c(Cl)ccc(CNC(=O)C(C)(C)C)c2Cl)nc2cc(C(=O)N[C@H]3CC[C@H](C(F)(F)F)CC3)c(N3CCn4ncnc4C3)cc21",
    "readout-label": "pIC50",
    "assay-result": 8.52
  },
  {
    "molecular-string": "Cn1c(Nc2c(Cl)ccc(CNC(=O)[C@@](C)(O)C(F)(F)F)c2Cl)nc2cc(C(=O)Nc3ccc(F)c(Cl)c3)c(N3CCC(C(F)(F)F)CC3)cc21",
    "readout-label": "pIC50",
    "assay-result": 8.41
  },
  {
    "molecular-string": "Cn1c(Nc2c(Cl)ccc(CNC(=O)C(C)(C)C)c2Cl)nc2cc(C(=O)NCC(F)(F)F)c(N3CCC(C(C)(C)O)CC3)cc21",
    "readout-label": "pIC50",
    "assay-result": 8.70
  },
  {
    "molecular-string": "CN(c1cc2c(cc1C(=O)NCC(F)(F)F)nc(Nc1c(Cl)ccc(CNC(=O)C(C)(C)C)c1Cl)n2C)C1CC1",
    "readout-label": "pIC50",
    "assay-result": 8.40
  }
]

Numbers sourced from patent US8674113B2.
